Species on record: Homo sapiens
Assay: Selectivity index, ratio of Ki for displacement of [3H] Spiperone from human D3 receptor expressed in CHO cells to Ki for displacement of [3H] Spiperone from human D4.4 receptor expressed in CHO cells
Format: cell-based
Reported Endpoint: Ratio Ki
API note: the answer field is a bare number with no unit suffix.

>  <Item Smiles>
COc1ccccc1N1CCN(CCCNC(=O)NN(Cc2cccc(F)c2)c2ccc(F)cc2)CC1

>  <Ratio Ki>
23

$$$$
>  <Item Smiles>
O=C(NCCN1CCN(c2ccc(I)cc2)CC1)NN(Cc1ccccc1)c1ccccc1

>  <Ratio Ki>
38

$$$$
>  <Item Smiles>
C=C(C)CN(NC(=O)NCCCN1CCN(c2ccccc2OC)CC1)c1ccc(OC)cc1

>  <Ratio Ki>
13

$$$$
>  <Item Smiles>
COc1ccc(N(Cc2cccc(OC)c2)NC(=O)NCCCN2CCN(c3ccccc3OC)CC2)cc1

>  <Ratio Ki>
9.7

$$$$
>  <Item Smiles>
O=C(NCCCN1CCN(c2ccc(Cl)cc2)CC1)NN(Cc1ccccc1)c1ccccc1

>  <Ratio Ki>
110

$$$$

For this compound ( "COc1ccccc1N1CCN(CCCNC(=O)NN(Cc2ccc(-c3ccccc3)cc2)c2ccc(F)cc2)CC1" ), measured Ratio Ki is 19

For this compound ( "COc1ccc(N(Cc2ccc(F)cc2)NC(=O)NCCCN2CCN(c3ccccc3OC)CC2)cc1" ), measured Ratio Ki is 140

For this compound ( "COc1ccccc1N1CCN(CCCNC(=O)NN(Cc2ccc(C#N)cc2)c2ccc(F)cc2)CC1" ), measured Ratio Ki is 43

For this compound ( "COc1ccc(N(Cc2cccc(F)c2)NC(=O)NCCCN2CCN(c3ccccc3OC)CC2)cc1" ), measured Ratio Ki is 14

For this compound ( "COc1ccc(N(Cc2ccc(C#N)cc2)NC(=O)NCCCN2CCN(c3ccccc3OC)CC2)cc1" ), measured Ratio Ki is 14

For this compound ( "COc1ccc(N(Cc2ccccc2)NC(=O)NCCCN2CCN(c3ccccc3OC)CC2)cc1" ), measured Ratio Ki is 71

---

Target: D(2) dopamine receptor (Homo sapiens, UniProt P14416)
Sequence (P14416 whole entry): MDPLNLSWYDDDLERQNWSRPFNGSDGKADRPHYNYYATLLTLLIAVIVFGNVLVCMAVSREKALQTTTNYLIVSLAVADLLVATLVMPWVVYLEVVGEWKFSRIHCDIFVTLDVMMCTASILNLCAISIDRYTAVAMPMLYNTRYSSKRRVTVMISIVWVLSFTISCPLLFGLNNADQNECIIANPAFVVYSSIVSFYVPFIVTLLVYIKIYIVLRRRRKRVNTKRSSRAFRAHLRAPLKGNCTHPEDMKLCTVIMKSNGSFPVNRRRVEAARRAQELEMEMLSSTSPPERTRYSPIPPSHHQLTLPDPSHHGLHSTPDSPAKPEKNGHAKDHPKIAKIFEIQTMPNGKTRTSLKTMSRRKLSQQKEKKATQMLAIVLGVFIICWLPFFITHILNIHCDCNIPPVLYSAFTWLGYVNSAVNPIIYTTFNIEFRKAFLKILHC
Assay: Displacement of [3H] Spiperone from human D2L receptor expressed in CHO cells by competitive radioligand binding assay
Assay type: cell-based
Collected pKi values appear next to each entry.
In simple prose, pKi is minus the logarithm base ten of a concentration in moles per litre.

For this molecule ( "COc1ccccc1N1CCN(CCCNC(=O)NN(Cc2ccccc2)c2ccc(Cl)cc2Cl)CC1" ), measured pKi is 7.46

---

Parameter 'readout' = Ki; parameter 'system' = D(3) dopamine receptor (Homo sapiens, UniProt P35462).
Sequence (P35462 whole entry): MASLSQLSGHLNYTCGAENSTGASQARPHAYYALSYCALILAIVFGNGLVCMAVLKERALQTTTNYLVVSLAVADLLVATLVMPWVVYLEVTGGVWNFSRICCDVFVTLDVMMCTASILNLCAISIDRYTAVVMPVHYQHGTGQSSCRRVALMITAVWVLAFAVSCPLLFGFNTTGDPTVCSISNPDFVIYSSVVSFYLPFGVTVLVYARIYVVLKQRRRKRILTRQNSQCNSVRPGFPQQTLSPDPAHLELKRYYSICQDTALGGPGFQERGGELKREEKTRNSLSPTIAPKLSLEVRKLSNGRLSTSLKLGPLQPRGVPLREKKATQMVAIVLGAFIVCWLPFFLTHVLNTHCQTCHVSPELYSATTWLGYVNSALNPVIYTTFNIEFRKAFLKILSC
Return type: number; implicit unit nM.

Consider the worked cases shown below.
>  <Item Smiles>
COc1ccccc1N1CCN(CCCNC(=O)NN(Cc2ccccc2)c2ccc(F)cc2)CC1

>  <Numeric Result>
25

$$$$
>  <Item Smiles>
COc1ccccc1N1CCN(CCCNC(=O)NN(Cc2ccccc2)c2ccccc2)CC1

>  <Numeric Result>
170

$$$$
>  <Item Smiles>
O=C(NCCN1CCN(c2ccc(Br)cc2)CC1)NN(Cc1ccccc1)c1ccccc1

>  <Numeric Result>
1800

$$$$
>  <Item Smiles>
COc1ccccc1N1CCN(CCCNC(=O)NN(Cc2ccccc2)c2ccc(Cl)cc2)CC1

>  <Numeric Result>
130

$$$$

Okay, next one:
The compound "COc1ccc(N(Cc2cccc(F)c2)NC(=O)NCCCN2CCN(c3ccccc3OC)CC2)cc1" on D(3) dopamine receptor (Homo sapiens, UniProt P35462): Ki was 86

Numbers sourced from ChEMBL document CHEMBL4321823.
